# measuredTarget: interaction between p53 and MDM2 proteins (recombinant GST-tagged MDM2 / biotinylated p53 peptide) (Homo sapiens)
# Sequence (Q00987 whole entry): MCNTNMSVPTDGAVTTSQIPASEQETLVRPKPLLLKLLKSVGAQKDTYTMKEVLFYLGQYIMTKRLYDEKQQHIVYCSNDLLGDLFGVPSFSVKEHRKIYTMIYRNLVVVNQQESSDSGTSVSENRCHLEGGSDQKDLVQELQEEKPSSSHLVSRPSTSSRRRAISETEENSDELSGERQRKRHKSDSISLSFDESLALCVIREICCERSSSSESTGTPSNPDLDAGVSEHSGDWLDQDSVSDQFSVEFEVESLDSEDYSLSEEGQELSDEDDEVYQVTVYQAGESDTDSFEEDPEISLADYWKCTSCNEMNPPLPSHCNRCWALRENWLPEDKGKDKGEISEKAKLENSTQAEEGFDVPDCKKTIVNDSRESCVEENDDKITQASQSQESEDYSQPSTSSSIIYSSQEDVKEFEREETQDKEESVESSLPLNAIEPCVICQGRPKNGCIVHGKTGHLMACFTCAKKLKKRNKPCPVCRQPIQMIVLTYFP
# protocolDetails: HTRF assay of inhibition of the p53-MDM2 interaction
# Assay type: binding
# conditionContext: 0.2% BSA
Exercise: for every item that follows, state its recorded IC50.
Report only the number, with the unit µM understood.

Sample CC(=O)N1CCC(Oc2ccc(I)cc2[C@H]2NC(=O)[C@@H](c3cccc(Cl)c3)C[C@]23C(=O)Nc2cc(Cl)ccc23)CC1 — what was its IC50?
0.034

Need IC50 of CC(=O)Nc1ccc(Oc2ccc(Cl)cc2[C@H]2NC(=O)C[C@@H](c3cccc(Cl)c3)[C@]23C(=O)Nc2cc(Cl)ccc23)cc1 (racemic) , thanks.
0.048

Report IC50 for C#Cc1ccc(OCC2CCN(C(=O)OC(C)(C)C)CC2)c([C@H]2NC(=O)C[C@@H](c3cccc(Cl)c3)[C@]23C(=O)Nc2cc(Cl)ccc23)c1 (racemic) please.
0.205

Look at this compound and give its reported IC50. O=C1C[C@@H](c2cccc(Cl)c2)[C@]2(C(=O)Nc3cc(Cl)ccc32)[C@@H](c2cc(Br)ccc2Oc2ccc(C(=O)NCCN3CCCC3)cc2)N1 (racemic)
0.131

Find the recorded IC50 belonging to C#Cc1ccc(OC2CCN(C(=O)N(CC)CC)CC2)c([C@H]2NC(=O)C[C@@H](c3cccc(Cl)c3)[C@]23C(=O)Nc2cc(Cl)ccc23)c1 (racemic) [Example 22b] and report it.
0.042
